Property Measured: melting point

Task item: Item under review: Cc1cc(OC(F)F)cc(NC(=O)NS(=O)(=O)c2ccccc2Cl)n1 . Reported melting point?
Reply: 169 to 170 °C

Task item: Consider next the compound CN1CCC(OC(c2ccccc2)c2nc3cc(Cl)c(Cl)cc3[nH]2)CC1 (configuration not stated) in the same way.
Reply: 221 °C

Task item: Consider next the compound CCOC(=O)c1ccc(C)c(NC(=O)C2=C(C)OCCS2)c1 in the same way.
Reply: 105 to 107 °C

Task item: Consider next the compound COc1ccc2c3c1OC(c1ccccc1)N3C(=O)C1CCCN1C2=O (configuration not stated) in the same way.
Reply: 157 to 160 °C

Task item: Consider next the compound COc1cc2c(cc1OC)C(N(CC(=O)O)C(=O)C(CSC(C)=O)CSC(C)=O)CC2 (configuration not stated) in the same way.
Reply: 140 to 143 °C

Task item: Consider next the compound COC(=O)c1cc(C(=O)N2CCSCC2)c2cc(Cc3ccc(F)cc3)cnc2c1O in the same way.
Reply: 184 to 185 °C

Task item: Consider next the compound c1ccc2sc(C3CCNCC3)cc2c1 in the same way.
Reply: 82 to 84 °C

Task item: Consider next the compound Cc1[nH]c(C=O)c(C)c1CCCCO in the same way.
Reply: 99 °C

Task item: Consider next the compound O=C(Nc1ccc(C(F)(F)F)cc1)N[C@@H](Cc1ccccc1)C(=O)OCc1ccccc1 in the same way.
Reply: 155 to 157 °C

Task item: Consider next the compound COc1ccc(N)cc1Oc1ncc(Cl)cc1Cl in the same way.
Reply: 95 to 105 °C

Task item: Consider next the compound CCOc1cccc2oc(-c3ccccc3)cc(=O)c12 in the same way.
Reply: 111 to 113 °C

Task item: Consider next the compound Cc1ccc(N2C(=O)C(O)=C(C(=O)c3ccc(C(C)C)cc3)C2c2ccc(N(C)C)cc2)nn1 (configuration not stated) in the same way.
Reply: 283 to 286 °C

Task item: Consider next the compound O=C(O)[C@@H]1CCCN1C(=O)C1CCCC1S (some centres not stated) in the same way.
Reply: 97 °C

Task item: Consider next the compound CCOC(=O)C1=C(C)NN=C(C(=O)OC)C1c1cccc(Cl)c1 (configuration not stated) in the same way.
Reply: 139 °C

Task item: Consider next the compound CCOC(=O)CN1C(=O)[C@@H](NC(=O)OC(C)(C)C)CC(=O)c2ccccc21 in the same way.
Reply: 86 to 88 °C

Task item: Consider next the compound O=C(C=Cc1ccc(Br)s1)Nc1nnn[nH]1 in the same way.
Reply: 268 °C

Task item: Consider next the compound O=C(O)c1cccc(CO[N+](=O)[O-])c1 in the same way.
Reply: 123 to 125 °C

Task item: Consider next the compound C=CCOc1ccc(C(=O)CC(=O)C(C)(C)C)cc1OC in the same way.
Reply: 40 °C

Task item: Consider next the compound CN(C)c1cccc(-c2ccc3c(C(N)=O)nn(-c4ccc(S(N)(=O)=O)cc4)c3c2)c1 in the same way.
Reply: 237 to 238 °C

Task item: Consider next the compound CCOC(=O)C1=C(C)NC(SCc2ccc(OC)cc2)=NC1c1cccc([N+](=O)[O-])c1Cl (configuration not stated) in the same way.
Reply: 155 to 157 °C

Task item: Consider next the compound Cc1c(C)c2c(c(C)c1Br)C(c1ccc(-c3ccccc3)cc1)CO2 (configuration not stated) in the same way.
Reply: 153 to 154 °C

Task item: Consider next the compound Nc1ccc2c(c1)OCC21C(=O)N(CC2CCCO2)c2ccccc21 (configuration not stated) in the same way.
Reply: 71 to 74 °C
